system: SKBR-3; experiment: MTT assay, SKBR-3 breast cancer cells; format: cell-based; conditions: Homo sapiens, SK-BR-3; 10 μM, 72 h after the treatment, MTT, mean of three independent experiments; read-out: Percentage of cell viability SKBR-3
MEASUREMENT_LABEL: viability at 10 µM

Check out these entries, answers already filled in.
[
  {
    "COMPOUND": "Nc1nc(Nc2ccccc2)nc(-c2ccc(OC(F)(F)F)cc2)n1 [Compound 89]",
    "viability at 10 µM": "90%"
  },
  {
    "COMPOUND": "COc1ccc(Nc2nc(N)nc(-c3ccc(C(F)(F)F)cc3)n2)cc1 [Compound 88]",
    "viability at 10 µM": "86%"
  },
  {
    "COMPOUND": "COc1ccc(-c2nc(N)nc(Nc3ccccc3OC)n2)cc1 [Compound 78]",
    "viability at 10 µM": "66%"
  },
  {
    "COMPOUND": "Cc1ccc(Nc2nc(N)nc(-c3ccc(OC(F)(F)F)cc3)n2)cc1 [Compound 94]",
    "viability at 10 µM": "87%"
  },
  {
    "COMPOUND": "Cc1cccc(-c2nc(N)nc(Nc3ccc(Br)cc3)n2)c1 [Compound 55]",
    "viability at 10 µM": "96%"
  },
  {
    "COMPOUND": "Cc1cccc(-c2nc(N)nc(Nc3ccc(F)cc3)n2)c1 [Compound 53]",
    "viability at 10 µM": "100%"
  }
]

Problem: # input compound: COc1ccc(Nc2nc(N)nc(-c3cccc(C)c3)n2)cc1 [Compound 57] ; wanted: its viability at 10 µM
Solution: 90%

Problem: # input compound: COc1ccc(-c2nc(N)nc(Nc3cccnc3)n2)cc1 [Compound 81] ; wanted: its viability at 10 µM
Solution: 77%

Problem: I would be grateful if you could share the reported viability at 10 µM for COc1ccc(Nc2nc(N)nc(-c3ccccc3)n2)cc1 [Compound 9] .
Solution: 96%

Problem: Fill in the blank: the reported viability at 10 µM of Nc1nc(Nc2ccc(Cl)cc2)nc(-c2ccc(Cl)cc2)n1 [Compound 39] is ____.
Solution: 100%

Problem: What measured viability at 10 µM goes with Nc1nc(Nc2ccccc2F)nc(-c2ccccc2)n1 [Compound 2] ?
Solution: 83%

###

system: SKBR-3; experiment: MTT assay, SKBR-3 breast cancer cells; type: cell-based; conditions: Homo sapiens, SK-BR-3; 72 h, MTT, mean of three independent experiments ± SEM
MEASUREMENT_LABEL: GI50

[
  {
    "MOL": "COc1ccccc1Nc1nc(N)nc(-c2ccc(OC(F)(F)F)cc2)n1",
    "GI50": "> 20 µM"
  },
  {
    "MOL": "CN(C)c1ccc(-c2nc(N)nc(Nc3ccc(F)cc3)n2)cc1",
    "GI50": "> 20 µM"
  }
]

Problem: What measured GI50 goes with "Cc1ccc(Nc2nc(N)nc(-c3cccs3)n2)cc1" ?
Solution: > 20 µM

###

MEASUREMENT_LABEL: melting point

Answered examples (6):
[
  {
    "COMPOUND": "Cc1cccc(-c2nc(N)nc(Nc3ccc(C(C)C)cc3)n2)c1 (hydrate or solvate) [Compound 59]",
    "melting point": "134 to 136 °C"
  },
  {
    "COMPOUND": "Nc1nc(Nc2ccc(F)cc2)nc(-c2ccc(OCc3ccccc3)cc2)n1 [Compound 111]",
    "melting point": "177 to 179 °C"
  },
  {
    "COMPOUND": "Nc1nc(Nc2ccccc2)nc(-c2ccc(Cl)cc2)n1 [Compound 34]",
    "melting point": "154 to 156 °C"
  },
  {
    "COMPOUND": "Nc1nc(Nc2ccc(F)cc2)nc(-c2ccc(C(F)(F)F)cc2)n1 [Compound 84]",
    "melting point": "150 to 152 °C"
  },
  {
    "COMPOUND": "Cc1cccc(-c2nc(N)nc(Nc3ccc(F)cc3)n2)c1 (hydrate or solvate) [Compound 53]",
    "melting point": "138 to 139 °C"
  },
  {
    "COMPOUND": "COc1ccc(Nc2nc(N)nc(-c3ccc(OC)cc3)n2)cc1 [Compound 71]",
    "melting point": "163 to 165 °C"
  }
]

Problem: GET /values?readout=melting point&item= Nc1nc(Nc2ccc(F)cc2)nc(-c2ccc(OC(F)(F)F)cc2)n1 [Compound 91]
Solution: 139 to 140 °C

###

tested on: SKBR-3; experiment: MTT assay, SKBR-3 breast cancer cells; format: cell-based; conditions: Homo sapiens, SK-BR-3; 10 μM, 72 h after the treatment, MTT, mean of three independent experiments; read-out: Percentage of cell viability SKBR-3
Known viability at 10 µM of a selection of compounds

Recorded results for 10 compounds are shown here.
[
  {
    "MOL": "CC(C)c1ccc(Nc2nc(N)nc(-c3ccc(OC(F)(F)F)cc3)n2)cc1",
    "RESULT": "90%"
  },
  {
    "MOL": "COc1ccccc1Nc1nc(N)nc(-c2ccc(Cl)cc2)n1",
    "RESULT": "89%"
  },
  {
    "MOL": "CN(C)c1ccc(-c2nc(N)nc(Nc3ccccc3)n2)cc1",
    "RESULT": "61%"
  },
  {
    "MOL": "COc1ccc(-c2nc(N)nc(Nc3ccccc3F)n2)cc1",
    "RESULT": "46%"
  },
  {
    "MOL": "COc1ccc(-c2nc(N)nc(Nc3ccc(F)cc3)n2)cc1",
    "RESULT": "100%"
  },
  {
    "MOL": "Nc1nc(Nc2ccc(F)cc2)nc(-c2ccc(C(F)(F)F)cc2)n1",
    "RESULT": "98%"
  },
  {
    "MOL": "Cc1ccc(-c2nc(N)nc(Nc3ccc(Br)cc3)n2)cc1",
    "RESULT": "100%"
  },
  {
    "MOL": "Nc1nc(Nc2ccccc2)nc(-c2ccc(F)cc2)n1",
    "RESULT": "94%"
  },
  {
    "MOL": "Nc1nc(Nc2ccc(F)cc2)nc(-c2ccc(OCc3ccccc3)cc2)n1",
    "RESULT": "84%"
  },
  {
    "MOL": "CN(C)c1ccc(-c2nc(N)nc(Nc3ccc(F)cc3)n2)cc1",
    "RESULT": "88%"
  }
]

Problem: Which viability at 10 µM is reported for this compound? "COc1ccccc1Nc1nc(N)nc(-c2ccc(OC(F)(F)F)cc2)n1"
Solution: 81%

Problem: # input compound: "Nc1nc(Nc2cccc(Cl)c2)nc(-c2ccc(F)cc2)n1" ; wanted: its viability at 10 µM
Solution: 88%

Problem: Which measured viability at 10 µM value corresponds to "CN(C)c1ccc(-c2nc(N)nc(Nc3ccccc3F)n2)cc1" ?
Solution: 51%

###

system: SKBR-3; experiment: MTT assay, SKBR-3 breast cancer cells; type: cell-based; settings: Homo sapiens, SK-BR-3; 10 μM, 72 h after the treatment, MTT, mean of three independent experiments; read-out: Percentage of cell viability SKBR-3
Below, each entry is listed with its recorded viability at 10 µM.
Write the value in % as a bare number.

Problem: // viability at 10 µM lookup, key: Cc1ccc(-c2nc(N)nc(Nc3cccnc3)n2)cc1 [Compound 69]
Solution: 79

Problem: Which viability at 10 µM value belongs to CC(C)c1ccc(Nc2nc(N)nc(-c3cccc(F)c3)n2)cc1 [Compound 20] ?
Solution: 100

Problem: Tell me the measured viability at 10 µM of CC(C)c1ccc(Nc2nc(N)nc(-c3cccs3)n2)cc1 [Compound 125] , please.
Solution: 86

Problem: Look up viability at 10 µM: Cc1ccc(Nc2nc(N)nc(-c3ccc(OCc4ccccc4)cc3)n2)cc1 [Compound 113]
Solution: 94

Problem: Look up viability at 10 µM for this compound: COc1ccc(-c2nc(N)nc(Nc3ccc(OC(F)(F)F)cc3)n2)cc1 [Compound 79]
Solution: 84

Problem: Query: viability at 10 µM; subject: Nc1nc(Nc2ccc(OC(F)(F)F)cc2)nc(-c2ccc(OC(F)(F)F)cc2)n1 [Compound 97]
Solution: 80

Problem: I have this compound here, Nc1nc(Nc2ccccc2F)nc(-c2ccc(OC(F)(F)F)cc2)n1 [Compound 90] , and I need its recorded viability at 10 µM.
Solution: 80

Problem: viability at 10 µM lookup needed for CC(C)(C)c1ccc(-c2nc(N)nc(Nc3ccc(Br)cc3)n2)cc1 [Compound 108] , thanks.
Solution: 98

Problem: Need viability at 10 µM of Nc1nc(Nc2ccc(Br)cc2)nc(-c2cccc(F)c2)n1 [Compound 16] , thanks.
Solution: 89

Problem: Requested read-out: viability at 10 µM. Entry: Nc1nc(Nc2ccc(Cl)cc2)nc(-c2cccc(F)c2)n1 [Compound 15]
Solution: 100

Problem: Please give the measured viability at 10 µM for this compound: Nc1nc(Nc2ccc(F)cc2)nc(-c2ccccc2)n1 [Compound 3]
Solution: 84

Problem: For the compound shown here, Nc1nc(Nc2ccc(OC(F)(F)F)cc2)nc(-c2cccc(F)c2)n1 [Compound 19] , give the reported viability at 10 µM.
Solution: 100

Problem: Query (compound): CC(C)(C)c1ccc(-c2nc(N)nc(Nc3ccc(F)cc3)n2)cc1 [Compound 106] ; field requested: viability at 10 µM
Solution: 84

Problem: Endpoint output: viability at 10 µM of Nc1nc(Nc2cccc(Cl)c2)nc(-c2ccc(Cl)cc2)n1 [Compound 38] . Value?
Solution: 92
